Each entry below carries its recorded IC50.
target: T1, recombinant human IL4Rα-his protein (in house made) (human, UniProt P24394 26-232, limits assumed); test: competitive ELISA, blocks biotin-IL4Rα-his binding to coated Benchmark (competitor)
T1 construct: also called Human IL4Ra-his
# output: bare number, implied unit nM

* huB8G11F2B7G5E8-V2 (antibody, human IgG4 S228P, kappa, V domains shown, Humanized, human IgG4/kappa; also called huBSG11F2B7G5E8-V2) VH: EVQLVQSGAEVKKPGATVKISCKVSGFNIKDTYMHWVKQAPGKGLEWVGRIDPTNGYTIYASKFQGKATITADTSSNTAYMELSSLRSEDTAVYHCVSRRPWFAYWGQGTLVTVSS VL: DIVMTQTPLSLSVTPGQPASISCRSSQSIVHSNGNTYLEWYLQKPGQSPQLLIYKVTNRFSGVPDRFSGSGSGTDFTLKISRVEAEDVGVYYCFQGSHVPYTFGQGTKLEIKR | 1.2
* mouse antibody C2B2F7B7 (antibody, V domains shown, Mouse hybridoma mAb) VH: EVQLVESGGGLVQPGGSLKLSCAASGFTFSTYGMSWVRQTPDKRLELVATINSNGGSTNYPDSVKGRFTISRDNAKNTLYLQMSSLKSEDTAMYYCARFFRIRNAMDYWGQGTSVTVSS VL: DIQMTQSPASLSASVGETVTITCRASENIYSYLAWYQQKQGKSPQFLVYNAKTLAEGVPSRFSGSGSGTQFSLKINSLQPEDFGSYYCQHYYGTPTWTFGGGTKLEIK | 0.72
* mouse antibody C2C1A1A1 (antibody, V domains shown, Mouse hybridoma mAb; also called Mouse C2C1A1A1) VH: EVQLVESGGGLVQPGGSLKLSCAASGFTFSTYGMSWVRQTPDKRLELVATINSNGGSTSYPDSVKGRFTISRDNAKNTLYLQMSSLKSEDTAMFYCARFFRFRNAMDYWGQGTSVTVSS VL: DIQMTQSPASLSASVGETVTITCRTSENIYSYLAWYQQKQGKSPQFLVYNAKTLAEGVPSRFSGSGSGTQFSLNINSLQSEDFGSYYCQHYYGPPTWTFGGGTKLEIK | 0.04

Then there is this binder:
Query: Fill in the blank: the reported IC50 of chimeric antibody B8G11F2B7G5E8 (antibody, human IgG4 S228P, kappa, V domains shown, Mouse variable domains on human IgG4/kappa; also called Chimeric B8G11F2B7G5E8; chB8G11F2B7G5E8) VH: EVQLQQSGADLVRPGASVKLSCTASGFNIKDTYMHWVKQRPEQGLEWVGRIDPTNGYTIYASKFQGKATITADTSSNTAYMQLSSLTSGDTAVYHCVSRRPWFAYWGQGTLVTVSA VL: DILMTQTPLSLPVSLGAQASISCRSSQSIVHSNGNTYLEWYLQKPGQSPKLLIYKVTNRFSGVPDRFSGSGSGTDFTLKISRVEAEDLGIYYCFQGSHVPYTFGGGTKLEIKR is ____.
Response: 1.52
